SYSTEM: VAV1 (Homo sapiens, UniProt P15498+Q96SW2)
Construct: A heterozygous VAV1 C-terminal HiBiT knock-in pool was generated at Monte Rosa Therapeutics from a clonal Jurkat cell; endogenous in cells; host or cells: Jurkat clone stably expressing LgBiT, homozygous GSPT1-G575N; heterozygous VAV1-HiBiT knock-in pool
ASSAY PROTOCOL: VAV1 degradation activity, VAV1-HiBiT knock-in Jurkat luminescence assay (Example A, Table 1)
Type: cell-based
ASSAY CONDITIONS: Jurkat, VAV1-HiBiT knock-in Jurkat cells, luminescence read at 6 and 24 hours; read-out: VAV1 Dmax %
PARAMETER: Dmax (%)
Express your answer in %, writing the number without its unit.

// query Reported Dmax for Cn1cnc(COc2ccc(-c3cccc(C4CCC(=O)NC4=O)c3Cl)cc2)c1 (centres unmarked) [Compound 183] : what is it?
// result 95.7

// query Same thing, different molecule: CC1CCCC(=O)N1Cc1ccc(-c2cccc(C3CCC(=O)NC3=O)c2Cl)cc1 (centres unmarked) [Compound 295]
// result 94.8

// query Same thing, different molecule: O=C1CCC(c2cccc(-c3ccc(CN4CCn5nccc5C4=O)cc3)c2Cl)C(=O)N1 (centres unmarked) [Compound 275]
// result 87.6

// query Same thing, different molecule: Nc1ccnn1Cc1ccc(-c2cccc(C3CCC(=O)NC3=O)c2Cl)cc1 (centres unmarked) [Compound 118]
// result 89.7

// query Same thing, different molecule: CN1CCCN(Cc2ccc(-c3cccc(C4CCC(=O)NC4=O)c3Cl)cc2F)C1=O (centres unmarked) [Compound 425]
// result 96.5

// query Same thing, different molecule: O=C1CCC(c2cccc(-c3ccc(Oc4ncccn4)cc3)c2Cl)C(=O)N1 (centres unmarked) [Compound 360]
// result 96.5

// query Same thing, different molecule: O=C1CCC(c2cccc(-c3cnc(N4C(=O)CCCC45CC5)c(F)c3)c2Cl)C(=O)N1 (centres unmarked) [Compound 362]
// result 87.5

// query Same thing, different molecule: Cc1c(-c2ccc(-n3ccccc3=O)cc2)cccc1C1CCC(=O)NC1=O (centres unmarked) [Compound 240]
// result 94.4

###

SYSTEM: VAV1 (Homo sapiens, UniProt P15498+Q96SW2)
Construct: A heterozygous VAV1 C-terminal HiBiT knock-in pool was generated at Monte Rosa Therapeutics from a clonal Jurkat cell; endogenous in cells; host or cells: Jurkat clone stably expressing LgBiT, homozygous GSPT1-G575N; heterozygous VAV1-HiBiT knock-in pool
ASSAY PROTOCOL: VAV1 degradation activity, VAV1-HiBiT knock-in Jurkat luminescence assay (Example A, Table 1)
Format: cell-based
ASSAY CONDITIONS: Jurkat, VAV1-HiBiT knock-in Jurkat cells, luminescence read at 6 and 24 hours; read-out: VAV1 Dmax %, class
PARAMETER: Dmax

// query Reported Dmax for O=C1CCC(c2cccc(-c3ccc(N4CCCN(CC(F)F)C4=O)cc3)c2Cl)C(=O)N1 (stereo not shown) : what is it?
// result > 90%

// query Same thing, different molecule: O=C1CCC(c2cccc(-c3ccc(-n4cccc(F)c4=O)cc3)c2Cl)C(=O)N1 (stereo not shown)
// result > 90%

// query Same thing, different molecule: O=C1CCC(c2cccc(-c3ccc(OCc4cccnc4)cc3)c2Cl)C(=O)N1 (stereo not shown)
// result > 90%

// query Same thing, different molecule: O=C1CCC(c2cccc(-c3ccc(Cn4ccccc4=O)cc3)c2F)C(=O)N1 (stereo not shown)
// result 60 to 90%
